# PROTOCOL: Mouse plasma stability protocol, up to 1 h (Examples 16-18)
# MEASUREMENT PARAMETERS: % Remaining of parent after 1 h incubation in mouse plasma at 37° C. (10 μM)
MEASUREMENT TYPE: % Remaining (1 h)

INSERT INTO measurements (compound, assay_result) VALUES
  ('CCc1c2c(nc3ccc(O)cc13)-c1cc3c(c(=O)n1C2)COC(=O)[C@@]3(CC)OC(=O)N1CCC(CCn2ccc3cc(-n4c(O)nnc4-c4cc(C(C)C)c(O)cc4O)ccc32)CC1', '91.5%'),
  ('CCc1c2c(nc3ccc(OC(=O)N4CCC(Cn5ccc6cc(-n7c(O)nnc7-c7cc(C(C)C)c(O)cc7O)ccc65)CC4)cc13)-c1cc3c(c(=O)n1C2)COC(=O)C3(O)CC (stereo not shown)', '57.9%'),
  ('CCc1c2c(nc3ccc(O)cc13)-c1cc3c(c(=O)n1C2)COC(=O)C3(CC)OC(=O)N1CCN(C(=O)C2CCN(c3ccc(-n4c(O)nnc4-c4cc(C(C)C)c(O)cc4O)cc3)CC2)CC1 (stereo not shown)', '108%'),
  ('CCNC(=O)c1nnc(-c2cc(C(C)C)c(O)cc2O)n1-c1ccc(OC2CCN(C(=O)Oc3c(C)cc(COC(=O)Nc4cccc5c4CN(C4CCC(=O)NC4=O)C5=O)cc3C)CC2)cc1 (stereo not shown)', '102%'),
  ('CCc1c2c(nc3ccc(OC(=O)N4CCN(c5ccc(-n6c(O)nnc6-c6cc(C(C)C)c(O)cc6O)cc5)CC4)cc13)-c1cc3c(c(=O)n1C2)COC(=O)C3(O)CC (stereo not shown)', '45.0%'),
  ('CCc1c2c(nc3ccc(OC(=O)N(C)C4CCN(C(=O)CCn5ccc6cc(-n7c(O)nnc7-c7cc(C(C)C)c(O)cc7O)ccc65)CC4)cc13)-c1cc3c(c(=O)n1C2)COC(=O)C3(O)CC (stereo not shown)', '18.0%'),
  ('CCc1c2c(nc3ccc(O)cc13)-c1cc3c(c(=O)n1C2)COC(=O)C3(CC)OC(=O)N(C)CCOCCn1ccc2cc(-n3c(O)nnc3-c3cc(C(C)C)c(O)cc3O)ccc21 (stereo not shown)', '95.3%'),
  ('CCc1c2c(nc3ccc(OC(=O)N4CCC(N(C)CCNC(=O)c5nnc(-c6cc(C(C)C)c(O)cc6O)n5-c5cccnc5)CC4)cc13)-c1cc3c(c(=O)n1C2)COC(=O)C3(O)CC (stereo not shown)', '41.0%'),
  ('CCNC(=O)c1nnc(-c2cc(C(C)C)c(O)cc2O)n1-c1ccc(Oc2ccc(OC(=O)N(C)CCOC(=O)Nc3cccc4c3CN(C3CCC(=O)NC3=O)C4=O)cc2)cc1 (stereo not shown)', '51.2%'),
  ('CCc1c2c(nc3ccc(O)cc13)-c1cc3c(c(=O)n1C2)COC(=O)[C@@]3(CC)OC(=O)CN1CCC(CCn2ccc3cc(-n4c(O)nnc4-c4cc(C(C)C)c(O)cc4O)ccc32)CC1', '111%'),
  ('CCNC(=O)c1nnc(-c2cc(C(C)C)c(O)cc2O)n1-c1ccc(C(=O)N2CCN(c3cc(C)c(OC(=O)Nc4cccc5c4CN(C4CCC(=O)NC4=O)C5=O)c(C)c3)CC2)cc1 (stereo not shown)', '82.0%'),
  ('CC(C)c1cc(-c2nnc(O)n2-c2ccc(CN3CCN(C(=O)Oc4ccc(COC(=O)Nc5cccc6c5CN(C5CCC(=O)NC5=O)C6=O)cc4)CC3)c(F)c2)c(O)cc1O (stereo not shown)', '17.7%'),
  ('CCNC(=O)c1nnc(-c2cc(C(C)C)c(O)cc2O)n1-c1ccc(Oc2ccc(N(C)C(=O)Oc3ccc4nc5c(c(CC)c4c3)Cn3c-5cc4c(c3=O)COC(=O)[C@]4(O)CC)cc2)cc1', '14.1%'),
  ('CCc1c2c(nc3ccc(OC(=O)N(C)CCn4ccc5cc(-n6c(O)nnc6-c6cc(C(C)C)c(O)cc6O)ccc54)cc13)-c1cc3c(c(=O)n1C2)COC(=O)C3(O)CC (stereo not shown)', '21.0%'),
  ('CCNC(=O)c1nnc(-c2cc(C(C)C)c(O)cc2O)n1-c1ccc(CN2CCC(C(=O)N3CCN(C(=O)Oc4ccc5nc6c(c(CC)c5c4)Cn4c-6cc5c(c4=O)COC(=O)C5(O)CC)C(C)C3)CC2)cc1 (stereo not shown)', '68.1%'),
  ('CCNC(=O)c1nnc(-c2cc(C(C)C)c(O)cc2O)n1-c1ccc(Oc2ccc(C(=O)N3CCC(N(C)C(=O)Oc4ccc5nc6c(c(CC)c5c4)Cn4c-6cc5c(c4=O)COC(=O)C5(O)CC)CC3)cc2)cc1 (stereo not shown)', '72.4%'),
  ('CCc1c2c(nc3ccc(OC(=O)N4CCN(Cc5ccc(-n6c(O)nnc6-c6cc(C(C)C)c(O)cc6O)cc5)CC4)cc13)-c1cc3c(c(=O)n1C2)COC(=O)C3(O)CC (stereo not shown)', '51.6%'),
  ('CCNC(=O)c1nnc(-c2cc(C(C)C)c(O)cc2O)n1-c1ccc(S(=O)(=O)N2CCC(C(=O)N3CCN(C(=O)Oc4ccc5nc6c(c(CC)c5c4)Cn4c-6cc5c(c4=O)COC(=O)C5(O)CC)CC3)CC2)cc1 (stereo not shown)', '47.6%'),
  ('CCNC(=O)c1nnc(-c2cc(C(C)C)c(O)cc2O)n1-c1ccc(C(=O)N2CCN(c3ccc(OC(=O)Nc4cccc5c4C(=O)N(C4CCC(=O)NC4=O)C5=O)c(OC)c3)CC2)cc1 (stereo not shown)', '1.40%');

###

# PROTOCOL: in vivo
# MEASUREMENT PARAMETERS: female, SCID, mouse
MEASUREMENT TYPE: concentration at 48 h (nM)

INSERT INTO measurements (molecule, assay_result) VALUES
  ('CC(C)c1cc(-c2nnc(O)n2-c2ccc(CN3CCN(C(=O)Oc4ccc(COC(=O)Nc5cccc6c5CN(C5CCC(=O)NC5=O)C6=O)cc4)CC3)c(F)c2)c(O)cc1O (stereo not shown)', 241);

###

# PROTOCOL: Solubility of SDC-TRAP-0063 (ganetespib placebo formulation, PEG-300)
# Type: physicochemical
# MEASUREMENT PARAMETERS: PEG-300, organic solvent or mixture, thermodynamic from solid; Lot 8; estimated; read-out: equilibrium solubility in PEG-300
MEASUREMENT TYPE: solubility thermodynamic

INSERT INTO assay_data (compound, measurement_type, assay_result) VALUES
  ('CCc1c2c(nc3ccc(OC(=O)N4CCC(CCn5ccc6cc(-n7c(O)nnc7-c7cc(C(C)C)c(O)cc7O)ccc65)CC4)cc13)-c1cc3c(c(=O)n1C2)COC(=O)[C@]3(O)CC', 'solubility thermodynamic', '~44 mg/mL');

###

# PROTOCOL: SDC-TRAP-0063 PK in male CD-1 mice (IV bolus)
# Type: in vivo
# MEASUREMENT PARAMETERS: of monitored analyte, dosed SDC-TRAP-0063 100 mpk IV bolus
MEASUREMENT TYPE: Cmax (µM)

INSERT INTO assay_data (molecule, assay_result) VALUES
  ('CCc1c2c(nc3ccc(OC(=O)N4CCC(CCn5ccc6cc(-n7c(O)nnc7-c7cc(C(C)C)c(O)cc7O)ccc65)CC4)cc13)-c1cc3c(c(=O)n1C2)COC(=O)C3(O)CC (stereo not shown) [compound 0063]', 799);

###

# reported % Remaining (1 h); entries follow
# PROTOCOL: Mouse plasma stability protocol, up to 1 h (Examples 16-18)
# MEASUREMENT PARAMETERS: mouse plasma, 37° C., 10 μM
MEASUREMENT TYPE: % Remaining (1 h)

INSERT INTO results (compound, assay_result) VALUES
  ('CCNC(=O)c1nnc(-c2cc(C(C)C)c(O)cc2O)n1-c1ccc(CN2CCC(C(=O)N3CCN(C(=O)Oc4ccc5nc6c(c(CC)c5c4)Cn4c-6cc5c(c4=O)COC(=O)C5(O)CC)C(C)C3)CC2)cc1 (stereo not shown)', '68.1%'),
  ('CCNC(=O)c1nnc(-c2cc(C(C)C)c(O)cc2O)n1-c1ccc(CN2CCC(C(=O)N3CCC(N(C)C(=O)Oc4ccc5nc6c(c(CC)c5c4)Cn4c-6cc5c(c4=O)COC(=O)C5(O)CC)CC3)CC2)cc1 (stereo not shown)', '74.7%'),
  ('CCc1c2c(nc3ccc(OC(=O)N4CCC(Cn5ccc6cc(-n7c(O)nnc7-c7cc(C(C)C)c(O)cc7O)ccc65)CC4)cc13)-c1cc3c(c(=O)n1C2)COC(=O)C3(O)CC (stereo not shown)', '57.9%'),
  ('CCc1c2c(nc3ccc(O)cc13)-c1cc3c(c(=O)n1C2)COC(=O)[C@@]3(CC)OC(=O)N1CCC(CCn2ccc3cc(-n4c(O)nnc4-c4cc(C(C)C)c(O)cc4O)ccc32)CC1', '91.5%');
